System: GalNAc(b1-3)Gal(a1-4)Gal(b1-4)GlcNAc(b1-3)Gal(b1-4)Glc
Protocol: glycan array binding signal (z-score within array); higher = stronger binding
Experimental Parameters: glycan notation: IUPAC condensed, linker removed
The entries come from a sample that favours the strongest signals as a whole.
Measured Attribute: glycan array binding signal (z-score)
Give bare numbers.

The cases that follow already have their glycan array binding signal (z-score) on record.
binder="F17aG (Escherichia coli), Q99003 (protein) MTNFYKVFLAVFILVCCNISQAAVSFIGSTENDVGPSLGSYSRTHAMDNLPFVYDTRNKIGYQNANVWHISKGFCVGLDGKVDLPVVGSLDGQSIYGLTEEVGLLIWMGDTKYSRGTAMSGNSWENVFSGWCVGANTASTQGLSVRVTPVILKRNSSARYSVQKTSIGSIRMRPYNGSSAGSVQTTVNFSLNPFTLNDTVTSCRLLTPSAVNVSLAAISAGQLPSSGDEVVAGTTSLKLQCDAGVTVWATLTDATTPSNRSDILTLTGASTATGVGLRIYKNTDSTPLKFGPDSPVKGNENQWQLSTGTETSPSVRLYVKYVNTGEGINPGTVNGISTFTFSYQ" value_measured=-0.179
binder="Epa11 (Candida glabrata) (protein) MGSSHHHHHHSSGLVPRGSHMASSNAPNYPVGCSPSVGTQLTPGLSLEVYAYPMDGNNGYCWNATYKDPEFPRSGYLKNKLLGKADGVVGPLNFLAKNKDCSPKVDTLPAGFNFPQPITVTNFTMVLFGYLAPKQSGKYTFKLLADDLLLLNLGATNAFDCCNREATKNNLGEFLAYNLWPNQDKNVTVYLEKGVYYPLRLFFNNRDGGSQLDFSYYFNDSPAPLTDFSGMFFSVPDGAECPARI" value_measured=-0.094
binder="FimA-N2 (Actinomyces oris) (protein) MHHHHHHSSGVDLGTENLYFQSNAWIYDVNVYPKNEAIDVDKTIQAQKLNGYGVGSLIKFPVESTAPTLDAKSFYKYFQLKDTLDERLSEVTATDVSLEGTPLQPTDYKVETKQQTVTVTFTAEGLKKIKAAPGKKVSAVFQGKVTKAGNGAITNRAQVISDTLYAEQPPTPETPPTDPENPPTSDEVISRWGDLSIKKVDTHQQGQTKA" value_measured=1.53
binder="Epa22 (Candida glabrata) (protein) MGSSHHHHHHSSGLVPRGSHMKRALSSQNPFGYPIGCSPQSTNVIPGLTMELYSYPIVSGTPPNCYDASYVDPEYPRTGYLKRKMIGKSTGVTGSLNYKFSVEKACMVKYGNLPAGYNYNEPLTVSNFTMLLYGYFKPQTSGIHTFFVNADDLLYINFGAGNAFDCCKREDSKFKLGEYVAYDIWHVDSSKNKVSLNLEKDVYYPIRMFFNNIGKDSSLDLSFSVNGAVEHITDFSGYLYSVPDQPDACPAPIGYDTTCK" value_measured=-0.336

Kindly review the next binder as well.
# input binder: Gz-CVNH (Gibberella zeae) (protein) MGSSHHHHHHSSGLVPRGSHMGNFHESSNNIWLEDGHILHAECGNGEGDYVESTLDLDYYIGNDDGSFSWGGENFSGSASNITLDIEGDDNIPVLRAELNPMDGDPVEANVNLSERIGNDCGTLIFLA ; wanted: its glycan array binding signal (z-score)
-0.132

The reported measurements were obtained from the supplement of paper PMC8728848.
